Reported pKi values are given for each entry in this list.
# study-system: D(2) dopamine receptor (Homo sapiens)
# Sequence (P14416 whole entry): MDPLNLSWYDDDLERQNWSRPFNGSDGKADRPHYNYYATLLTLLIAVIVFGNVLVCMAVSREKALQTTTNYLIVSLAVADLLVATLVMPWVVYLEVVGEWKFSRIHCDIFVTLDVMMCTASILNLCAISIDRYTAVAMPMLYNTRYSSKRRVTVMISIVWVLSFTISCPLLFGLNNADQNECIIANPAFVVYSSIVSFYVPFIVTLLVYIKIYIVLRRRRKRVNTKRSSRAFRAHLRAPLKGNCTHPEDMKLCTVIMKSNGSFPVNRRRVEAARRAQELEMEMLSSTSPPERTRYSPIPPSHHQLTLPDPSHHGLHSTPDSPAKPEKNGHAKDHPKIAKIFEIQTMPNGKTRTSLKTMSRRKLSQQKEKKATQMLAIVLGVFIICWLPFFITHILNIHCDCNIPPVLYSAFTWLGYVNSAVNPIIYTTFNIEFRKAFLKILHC
# assay-info: Displacement of [3H]-(R)-(+)7-OH-DPAT from human dopamine D2 receptor expressed in HEK293 cell membranes incubated for 90 mins by microbeta scintillation counting analysis
# reply with the number alone; pKi is -log10 of concentration in mol/L

# smiles-record, study-system, pKi
rows = [
    ("CN(CC[C@@H]1CC[C@@H](CNC(=O)c2cc3ccccc3[nH]2)C1)[C@@H]1Cc2cccc3[nH]c(=O)n(c23)C1", "D(2) dopamine receptor (Homo sapiens)", 8.34),
]

Next item in the queue.
[in] Provide pKi value for the following compound: CN(CC[C@@H]1CC[C@H](CNC(=O)c2cc3ccccc3[nH]2)C1)[C@@H]1Cc2cccc3[nH]c(=O)n(c23)C1
[out] 8.70
